Target: ARL4D; further: reference of the scale not given here
Assay: pooled miR-30 sensor sort-seq; sequence = guide strand
Settings: shRNA
Tick T if sensor-assay potency score (higher = more potent) is -0.4 or greater. Tick F if sensor-assay potency score (higher = more potent) is less than -0.4.

>>> category("TTGCACATGAGTGAGAGTGGCG")
"F"
>>> category("TTTGGTGGGGACACTCTGGACA")
"F"
>>> category("AACTCCTTGAACTTGAGGCGGT")
"T"
>>> category("TTCGGTGCAACTCCACCTTGGC")
"T"
>>> category("TGGAAGGTGATGCCACGCGATC")
"F"
>>> category("TTCCTCTTGAGGATCATCTCAT")
"T"
>>> category("TGGACAAACTCCTTGAACTTGA")
"F"
>>> category("AGACCGTCCACAGCGCTGCAGC")
"F"
>>> category("TTCTCGGTGTTGAAGCCTTTGG")
"F"
>>> category("TACGTCTCCACAGTCCTGCAGC")
"F"
>>> category("AAACTCCTTGAACTTGAGGCGG")
"F"
>>> category("TCGGTGTTGAAGCCTTTGGTGG")
"F"
>>> category("TGATTCGGTGCAACTCCACCTT")
"T"
>>> category("TAGACCGTCTGTCCGGCGGGTA")
"F"
>>> category("TCCACCACAAACACTAGACCGT")
"F"
